assay: small molecules captured by biotinylated probe aFST – biochemical, small-molecule microarray, fluorescence 635/667, stem cell growth factor project, primary screen (AID 1086); conditions: higher = more signal;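 further: score merges 667 nm fluorescence with signal-to-noise of each printed compound spot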
QUANTITY_NAME: composite z-score
In your answer, state the number alone without any accompanying words.

composite z-score reading for CCOC(=O)C1=CC[C@@H](c2cccc(Cl)c2)N(S(=O)(=O)c2ccc(C)cc2)[C@H]1c1ccc(C#N)cc1 : 0.751

O=C1OCCC=C[C@H]2OC34C=CCN(CCN5CCOCC5)C(=O)[C@H]3N(CCO)C(=O)[C@@H]4C12 (some centres undefined) yielded composite z-score of -0.569

Briefly, composite z-score measured for COc1ccc([Si](C)(C)[C@H]2[C@H](CC(=O)N3CCC[C@H]3CO)O[C@@]3(C(=O)N(Cc4cccc(N5CCC5=O)c4)c4ccccc43)[C@@H]2C)cc1 : 0.774

Given item O=C1C2C=CC(C(O)CCc3ccccc3)N(Nc3ccccc3)C2C(=O)N1c1ccccc1 (centres undefined) , the value recorded as its composite z-score is 1.15
